Target: T1, recombinant mouse Ang2-FLD (mouse, UniProt O35608 275-496, limits assumed)
T1 construct: domain: FLD
T1 sequence (looked up): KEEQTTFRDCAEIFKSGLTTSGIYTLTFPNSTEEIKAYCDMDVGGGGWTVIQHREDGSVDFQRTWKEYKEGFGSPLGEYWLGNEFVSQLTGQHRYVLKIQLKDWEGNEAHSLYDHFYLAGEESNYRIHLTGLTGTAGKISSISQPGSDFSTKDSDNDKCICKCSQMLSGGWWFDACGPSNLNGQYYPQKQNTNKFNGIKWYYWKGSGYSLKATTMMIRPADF
Test: SPR (Biacore T100), binder on CM5 chip, Ang2-FLD as analyte
parameter measured: koff (s⁻¹)
Give the quantity in s⁻¹, number only.

Any idea what its koff is? The binder is VHH 1D01 (VHH, also called 001D01; not shown: C-terminal c-myc tag and His6 tag) VHH: EVQLVESGGGLVQAGGSLRLSCAASGFTFDDYALGWFRQAAGKEREGVSCIRCSDGSTYYADSVKGRFTISSDNAKNTVYLQMNSLKPEDTAVYYCAASIVPRSKLEPYEYDAWGQGTQVTVSS
0.015

Any idea what its koff is? The binder is VHH 10H02 (VHH, also called 010H02; not shown: C-terminal c-myc tag and His6 tag) VHH: EVQLVESGGGSVQAGGSLRLSCAASGFTFDDYAIGWFRQAPGKEREGVSCISSSDGSTNYADSVKGRFTISSDTAKNTVYLQMNSLKPEDTAVYYCTAVPATRRTPQMVDANMCWLAEYEYDYWGQGTQVTVSS
0.026

Any idea what its koff is? The binder is VHH 7G08 (VHH, also called 007G08; not shown: C-terminal c-myc tag and His6 tag) VHH: EVQLVESGGGLVQPGGSLRLSCAASGFALDYYAIGWFRQVPGKEREGVSCISSSDGITYYVDSVKGRFTISRDNAKNTVYLQMNSLKPEDTAVYYCATDSGGYIDYDCMGLGYDYWGQGTQVTVSS
0.00014

Any idea what its koff is? The binder is VHH 24B05 (VHH, also called 024B05; not shown: C-terminal c-myc tag and His6 tag) VHH: EVQLVESGGGLVQPGGSLRLSCAASGFTLDYYAIGWFRQAPGKEWEGVSCISSSDGSTYYADSVKGRFTISRDNAKNTVYLQMNSLKPEDTAVYYCATDSIVCGSYYGMDYWGKGTQVTVSS
0.0029

Any idea what its koff is? The binder is VHH 13A02 (VHH, also called 013A02; not shown: C-terminal c-myc tag and His6 tag) VHH: EVQLVESGGGLVQAGGSLRLSCAASGGTFSSYSMGWFRQAPGKEREFIAAINWNGDSTYYEDSVKGRFTVSRDNAKNTVYLQMNSLKPEDTAVYYCAATGWGRAYEQAYEYDVWGQGTQVTVSS
0.034
